- Test system: TK-10
- Assay Notes: NCI tumour cell line growth inhibition, 48 h
Activity calls are given as the source filed them. Cut-off read from the data, not from the text of the source: active = GI50 up to about 1.1 µM and inactive = higher.

- Compound: "N#CC(C(=O)/C(=N\\NC(N)=O)C(C#N)c1ccccc1)c1ccccc1 (configuration not stated)"
  GI50: "> 100 µM (inactive)"
- Compound: "CCCCCCCCCCCCCCCCCCOCC(CO[PH](=O)O)OCCCCCCCCCCCCCCCCCC (configuration not stated)"
  GI50: "> 50 µM (inactive)"
- Compound: "O=C(c1ccccc1)N1OCCC1Nc1ccc(Br)cc1 (configuration not stated)"
  GI50: "> 10 µM (inactive)"
- Compound: "COC1C(O)C(C)OC(OC2C(Oc3cccc4c(O)c5c(=O)oc6ccc(C)c7c(=O)oc(c34)c5c67)OC(C)C(O)C2O)C1O (configuration not stated)"
  GI50: "3.1 µM (inactive)"
- Compound: "COc1cc2c(cc1OC)C(CC(=O)NN=C(C)C)NCC2 (configuration not stated)"
  GI50: "> 100 µM (inactive)"
- Compound: "CCCCCCCCCCCCCCCCS(=O)(=O)c1ccc(NN)cc1"
  GI50: "> 10 µM (inactive)"
- Compound: "c1ccc(SC(CCCCC(Sc2ccccc2)Sc2ccccc2)Sc2ccccc2)cc1"
  GI50: "> 100 µM (inactive)"
- Compound: "Cc1c(/C=N/NC(=S)Nc2ccc(Cl)cc2)c(=O)n(-c2ccccc2)n1C"
  GI50: "23.6 µM (inactive)"
- Compound: "COc1ccc(/C=C2\\C(=O)NC(=O)c3ccccc32)cc1OC"
  GI50: "> 100 µM (inactive)"
- Compound: "CC(=O)OC1COC(N2C(=O)/C(=N\\NC(N)=S)c3cc(Br)ccc32)C(OC(C)=O)C1OC(C)=O (configuration not stated)"
  GI50: "> 100 µM (inactive)"
- Compound: "Cc1cc(-c2nc3cc(F)ccc3s2)ccc1NC(=O)C(C)N (configuration not stated)"
  GI50: "0.0501 µM (active)"
- Compound: "CCN(CC)C(=O)CCNC(C)Cc1c[nH]c2ccccc12 (configuration not stated)"
  GI50: "> 100 µM (inactive)"

* * *

- Tested on: HOP-62
- Assay Notes: NCI tumour cell line growth inhibition, 48 h
The source made the active and inactive calls. Cut-off read from the data, not from the text of the source: active = GI50 up to about 1.1 µM and inactive = higher.
Classes used: 1 (yes) for active, 0 (no) for inactive

- Compound: "CCCCCCCCCC1CC(=O)OC23CCCC(=O)C12O3 (configuration not stated)"
  Qualitative Label: "0 (no)"
- Compound: "Cc1ccc(N)cc1.O=S(=O)(O)/C(=C\\c1ccccc1)c1ccccc1"
  Qualitative Label: "0 (no)"
- Compound: "COc1nc(C#CCCCC#N)nc(OC)n1"
  Qualitative Label: "0 (no)"
- Compound: "CC(CC(N)C(=O)O)C(=O)O (configuration not stated)"
  Qualitative Label: "0 (no)"
- Compound: "CCOc1ccccc1NC(=O)C(=O)C(C(=O)c1ccc2ccccc2c1)C1OC(=O)c2ccccc21 (configuration not stated)"
  Qualitative Label: "0 (no)"
- Compound: "c1ccc(SC(CCCCC(Sc2ccccc2)Sc2ccccc2)Sc2ccccc2)cc1"
  Qualitative Label: "0 (no)"
- Compound: "Cc1noc(-c2ccc(C(=O)O)[nH]2)c1Br"
  Qualitative Label: "0 (no)"
- Compound: "COC1C(O)C(C)OC(OC2C(Oc3cccc4c(O)c5c(=O)oc6ccc(C)c7c(=O)oc(c34)c5c67)OC(C)C(O)C2O)C1O (configuration not stated)"
  Qualitative Label: "0 (no)"
- Compound: "O=C(c1ccccc1)N1OCCC1Nc1ccc(Br)cc1 (configuration not stated)"
  Qualitative Label: "0 (no)"
- Compound: "NC(=O)N/N=C/C(/C=N/NC(N)=O)[N+](=O)[O-]"
  Qualitative Label: "0 (no)"
- Compound: "N#CC(=C1CCCCC1)c1nc2ccccc2o1"
  Qualitative Label: "0 (no)"
- Compound: "CC1(c2ccc[n+](Cc3ccccc3)c2)OCCO1"
  Qualitative Label: "0 (no)"
- Compound: "C=C1c2nc3ccccc3n2C=C(c2ccc(C)cc2)N1c1ccccc1"
  Qualitative Label: "0 (no)"
- Compound: "COc1cc(O)c(C(C)=O)c(O)c1"
  Qualitative Label: "0 (no)"
- Compound: "CCNCC(=O)O[C@]1(CC)C(=O)OCc2c1cc1n(c2=O)Cc2cc3ccccc3nc2-1"
  Qualitative Label: "1 (yes)"
- Compound: "O=C(CCSC1=NCCCN1)c1ccc(F)cc1"
  Qualitative Label: "0 (no)"
- Compound: "O=C(CCc1ccc(O)c(O)c1)NCCc1ccc(O)c(O)c1"
  Qualitative Label: "0 (no)"
